Source listed as the supplement of paper PMC9170038.

Tested on: MS2 coat protein
test.name: apparent KD of MS2 coat protein; designed switch direction (-1 OFF switch, 1 ON switch): 1; higher = weaker reporter binding
condition.set: input ligand: FMN 200 uM
Label Not met if apparent KD of MS2 coat protein falls below 90 nM; label Met in every other case.

Check out these entries, answers already filled in.
1) UUAAUGAAGUAAGGAUAUACAUGAGGAUCACUCGUAGAAGGUACUAUACAUGAGGAUCACCCAUGUUCCGGUCAGAAGACUGGA [Mat - Same State NG 1 - JL mod - D3] (Eterna round: R96, puzzle: Same State NG 1)
Met
2) GGAGAGAAGUGAGGAUAUGCAUGGAAGACACAUGAGGAUCACCCAUGUGGGAGGGAAACCGGGAGGUAGAAGGCACUGGGAAGA [AK SSNG2-V2-25] (Eterna round: R96, puzzle: Same State NG 2)
Not met
3) UUGAAGAAUUAAGGAUAUUGAAUACAUAUGUUUAACAUGAGGAUCACCCAUGUGGGUUGCGGUAUCGAGAAGGUAAAUAAAUAG [Mat - Same State NG 2 - JL mod - D3] (Eterna round: R96, puzzle: Same State NG 2)
Met
4) AAGAAAGACGCAGGAUAUCAGCGCAAAACACGCUGAGAAGGGUGAGACAUGAGGAUCACCCAUGUAACACGGCAAAACGCCGUG [Atinanor] (Eterna round: R96, puzzle: Same State NG 1)
Met
5) AGGCUCAGACGAGGAUAUAUGUGAUCACAUGAGGAUCACCCAUGUCUCGAGCUUCGGCUCGAGACAUAGAAGGUGUCUGAGCCA [SSNG2/3-C1] (Eterna round: R96, puzzle: Same State NG 2)
Not met
6) UGAAUAGUUACAGGAUAUGAGCCGUAAAUUGGGUCAGAAGGGUGGGUGUUCUGCGCGGUGUGUUACAUGAGGAUCACCCAUGUU [SameState NG1 #30] (Eterna round: R96, puzzle: Same State NG 1)
Met

*Q* For this sequence, is measured apparent KD of MS2 coat protein 90 nM or higher? GCUAGGAUAUGACGAGGAUCACCCGUUAGAAGGAGCUUCAGCUAGGAUAUGACGAGGAUCACCCGUUAGAAGGAGCACUACUCU [pwkr ssNG3 DX 2xF5 +2xFMN.8] (Eterna round: R96, puzzle: Same State NG 3)
*A* Met

*Q* Note, next up: GGUGCAAUUAACGCCUACAUGAGGAUCACCCAUGUAUGUAGGCAGGAUAUCGUUUGCUUUGCAAACGAGAAGGGCUGUAGUACC [JL SSNG3 1.14] (Eterna round: R96, puzzle: Same State NG 3)
*A* Not met

*Q* Note, next up: GCUACGGACGUAGGAUAUGUAGGAUAUGGUGAGAGCUAAGCUUGGAAGUCACUUCAACCAGAAGGACAGAAGGACGCCGUGAGG [pwkr ssNG2 2FMN + F9.18] (Eterna round: R96, puzzle: Same State NG 2)
*A* Met

*Q* Note, next up: UAACAGUACAAUUUAGAUCUACAUGAGGAUCACCCAUGUACUGAGGAUAUCAGCUCGAUUAGAGCUGAGAAGGCAGAAGAACUA [SSNG3/11-A2] (Eterna round: R96, puzzle: Same State NG 3)
*A* Not met

*Q* Note, next up: AUUUUUAAUGCAGGAUAUGAUUAACAUGAGGAUCACCCAUGUGGUGUUGUGAGUAAGGAGAGUGAUCAGAAGGGCAUUUUUUUC [JMF's solution 91] (Eterna round: R96, puzzle: Same State NG 2)
*A* Met

*Q* Note, next up: AGCUAUUAAUCAGGAUAUAGGGACAUGAGGAUCACCCAUGUGUACAUGAGUAAAUGUGAUCACGUCUAGAAGGGAUUACUAACA [SameState NG2 #38] (Eterna round: R96, puzzle: Same State NG 2)
*A* Met

*Q* Note, next up: GGAGCCGACACUGAGGAUAUUCAUAUUAAAACAUGAGGAUCACCCAUGUAGGCCAGAAGGCCUUGGGAGAAGGCAGGCCGGCUCG [Inxebi] (Eterna round: R96, puzzle: Same State 2)
*A* Not met

*Q* Note, next up: GUAGCAUACCGAGGAUAUUCAUAUUAUAAACAUGAGGAUCACCCAUGUGGUCGAUUACGACCUUGGGAGAAGGCGGAAUGCUAC [Xeonanis - 20 Mod36] (Eterna round: R96, puzzle: Same State NG 2)
*A* Not met

*Q* Note, next up: CUGAGCAAUCAAGGAUAUCACGUCGAAUAGACGUGAGAAGGUGAUCAUAACAUGAGGAUCACCCAUGUAUUACAUGAAGCUCAG [SSNG1/1-A1] (Eterna round: R96, puzzle: Same State NG 1)
*A* Met

*Q* Note, next up: UGUUGUUAAUUAGGAUAUGGUCACAUGAGGAUCACCCAUGUAAUGUCGAUGCUAUGUGGAUACGAUCAGAAGGAAUGGCUAACA [SameState NG2 #94] (Eterna round: R96, puzzle: Same State NG 2)
*A* Met

*Q* Note, next up: AGAUCAUGACGAGGAUAUGGUACAUGAGGAUCACCCAUGUAUGUACCAUAAUUAGUAUUAGGAAACCAGAAGGCGUCGUGGUCA [JL SSNG2 1.18] (Eterna round: R96, puzzle: Same State NG 2)
*A* Not met

*Q* Note, next up: AGGCUCAGAGCAGGAUAUAUGUAAUAACAUGAGGAUCACCCAUGUGUCGAGCUUCGGCUCGACACAUAGAAGGGCUCUGAGCCA [SSNG2/2-B1] (Eterna round: R96, puzzle: Same State NG 2)
*A* Not met
